ASSAY TARGET: human CK2a2 (CSNK2a2) (Homo sapiens)
Construct: Recombinant human CK2a2 (CSNK2a2) (full length); GST (N); purchased SignalChem C71-10G; host or cells: Sf9 insect cells
Sequence (P19784 whole entry): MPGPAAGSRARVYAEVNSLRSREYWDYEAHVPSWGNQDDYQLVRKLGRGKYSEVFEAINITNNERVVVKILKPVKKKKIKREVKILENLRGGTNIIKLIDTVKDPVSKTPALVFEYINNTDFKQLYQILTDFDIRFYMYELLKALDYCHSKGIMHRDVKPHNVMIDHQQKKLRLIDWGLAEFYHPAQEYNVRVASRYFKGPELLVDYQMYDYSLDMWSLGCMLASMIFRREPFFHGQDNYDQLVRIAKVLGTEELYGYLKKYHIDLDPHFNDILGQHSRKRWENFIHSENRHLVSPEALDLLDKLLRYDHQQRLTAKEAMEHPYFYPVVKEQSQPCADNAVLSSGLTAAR
EXPERIMENT DESCRIPTION: CK2a2 (CSNK2a2) enzyme assay (ADP-Glo)
Assay type: biochemical
REPORTED CONDITIONS: ADP-Glo, ATP 15 μM; read-out: CK2 alpha 2 IC50
The reader will find reported IC50 values listed item by item below.
OBSERVED PROPERTY: IC50

[[record]]
given_smiles = "O=C1NC(N(CCO)c2ccccc2)=N/C1=C\\c1ccc2c(c1)OCO2"
assay_value = "0.1 to 1 µM"

[[record]]
given_smiles = "Nc1ccc(NC2=N/C(=C\\c3ccc4ncsc4c3)C(=O)N2)cc1"
assay_value = "< 0.1 µM"

[[record]]
given_smiles = "O=C1NC(Nc2ccccc2)=N/C1=C\\c1ccc2ncccc2c1"
assay_value = "> 10 µM"

[[record]]
given_smiles = "CN(C1=N/C(=C\\c2ccc3c(c2)OCO3)C(=O)N1)c1ccc2ncsc2c1"
assay_value = "0.1 to 1 µM"

[[record]]
given_smiles = "CCN(C1=N/C(=C\\c2ccc3c(c2)OCO3)C(=O)N1)c1ccccc1"
assay_value = "0.1 to 1 µM"

[[record]]
given_smiles = "Cc1nc2ccc(NC3=N/C(=C\\c4ccc5ncsc5c4)C(=O)N3)cc2s1"
assay_value = "< 0.1 µM"

[[record]]
given_smiles = "O=C1NC(Nc2ccc3ncsc3c2)=N/C1=C\\c1ccc2c(c1)OCO2"
assay_value = "> 10 µM"

[[record]]
given_smiles = "CC(C)NC1=N/C(=C\\c2ccc3ncsc3c2)C(=O)N1C"
assay_value = "1 to 10 µM"

[[record]]
given_smiles = "CN(CC1CC1)C1=N/C(=C\\c2ccc3c(c2)OCO3)C(=O)N1"
assay_value = "0.1 to 1 µM"

[[record]]
given_smiles = "O=C1NC(Nc2ccc(Cl)cc2)=N/C1=C\\c1ccc2ncsc2c1"
assay_value = "> 10 µM"

[[record]]
given_smiles = "O=C1NC(Nc2ccccc2)=N/C1=C\\c1ccc2ncsc2c1"
assay_value = "< 0.1 µM"

[[record]]
given_smiles = "CN(C1=N/C(=C\\c2ccc3c(c2)OCO3)C(=O)N1)c1ccccc1"
assay_value = "0.1 to 1 µM"

[[record]]
given_smiles = "CN(C1=N/C(=C\\c2ccc3c(c2)OCCO3)C(=O)N1)c1ccc2ncsc2c1"
assay_value = "0.1 to 1 µM"

[[record]]
given_smiles = "O=C1NC(N(Cc2ccccc2)c2ccccc2)=N/C1=C\\c1ccc2c(c1)OCO2"
assay_value = "> 10 µM"

[[record]]
given_smiles = "O=C1NC(Nc2ccccc2)=N/C1=C\\c1ccc2occc2c1"
assay_value = "> 10 µM"

[[record]]
given_smiles = "Cn1cnc2ccc(/C=C3\\N=C(Nc4ccccc4)NC3=O)cc21"
assay_value = "< 0.1 µM"

[[record]]
given_smiles = "CN(C1=N/C(=C\\c2ccc3ncsc3c2)C(=O)N1)c1ccccc1"
assay_value = "0.1 to 1 µM"

[[record]]
given_smiles = "CN(Cc1ccccc1)C1=N/C(=C\\c2ccc3c(c2)OCO3)C(=O)N1"
assay_value = "> 10 µM"

[[record]]
given_smiles = "CN(C1=N/C(=C\\c2ccc3ncsc3c2)C(=O)N1)c1ccc(N)cc1"
assay_value = "0.1 to 1 µM"

